test: protein stability index of a GFP-peptide fusion (yeast GPS) (PSI 1-4); higher = more stable; sorted into four equal gates, so the index is relative within each strain; details: ubr1∆
MEASURED QUANTITY: protein stability index

>>> reported_result("PDGSFEDWSVEELIVDL [RPO26]")
2.84
>>> reported_result("REGLIDTAVKTAETGYI [RPO21]")
1.13
>>> reported_result("LLGNCYSLRLINKEIFH [SRB8]")
1.36

----------
assay: protein stability index of a GFP-peptide fusion (yeast GPS) (PSI 1-4); higher = more stable; sorted into four equal gates, so the index is relative within each strain; conditions: ubr1∆
Listing of recorded protein stability index by entry.
MEASURED QUANTITY: protein stability index

>>> reported_result("ELWRKEQKLQTVLETLL [SMC3]")
3.31
>>> reported_result("TAGAAANALGGLGVNRR [SSN3]")
3.24
>>> reported_result("PKMKDEEYDDDDDNSNV [SNF2]")
3.27
>>> reported_result("FLESSKEIDPSQTTQLA [FAS2]")
2.42
>>> reported_result("DNVDDIGEFNVSMYQNS [YDL088C/ASM4]")
3.19
>>> reported_result("TTTRIQSQQAQPSDVMF [MED2]")
2.87
>>> reported_result("ERGHPKDNARIYQVPEK [POP1]")
3.11
>>> reported_result("NMGSLLGLCLVIQIVTG [COB]")
3
>>> reported_result("SPELKAELRPLQFKSIR [RPS7A]")
3.07
>>> reported_result("TLPEKKQFDSIFNSNKA [SIR4]")
2.8
>>> reported_result("RKILKKTFKNPKYESLK [RPN5]")
3.19
>>> reported_result("NKTVNEAAKPSLSFGSG [YJL041W/NSP1]")
3.21
>>> reported_result("NRVPDGFQDRSLPHFPK [RPO31]")
3.6
>>> reported_result("QEQLKNVKNDVSFNDSQ [YIL149C/MLP2]")
3.31
>>> reported_result("DTPEGEACGLVKNLALM [RET1]")
1.71
>>> reported_result("DNMITGVTKGYKYKMRY [RPL9A]")
3.1
>>> reported_result("KEKAPTIIFIDELDAIG [RPT5]")
2.4
>>> reported_result("NCEYEDPPNEGDPFDYK [RPB3]")
3.14
>>> reported_result("PGMPNMPGMPNMPGMPK [SRP54]")
3.3
>>> reported_result("PISEKGLTLSTTNLDID [RPP1]")
2.9
>>> reported_result("IIFASTKLGFTFTIKEF [SNU114]")
2.56
>>> reported_result("DIEIVRVNKNAPAVELH [FAS2]")
2.96
>>> reported_result("FQETLDSTVVYPLPKFP [MED8]")
3.15
>>> reported_result("KTASLGNSKDDLLDMIQ [ISW2]")
1.94
>>> reported_result("CNQMENLLESITKLLEI [YCS4]")
2.96
>>> reported_result("MYQMITMGGNAELELVD [SMC4]")
2.54
>>> reported_result("SLGIAQPKGVILYGPPG [RPT6]")
2.91
>>> reported_result("DSIGSTRVEGSGGGDSE [RPT6]")
2.97
>>> reported_result("CDKSVCRKCYARLPPRA [RPL40A]")
2.66
>>> reported_result("FKSTESNISDEKSRISE [YMR129W/POM152]")
3.05
>>> reported_result("HVESDKITAKTQHEEEE [IRR1]")
2.81
>>> reported_result("IDGKTVSYKDYSIFLEN [SMC1]")
2.89
>>> reported_result("RIVNHKTKLWGFKWLNK [LIN1]")
2.88
>>> reported_result("PEDAQLLLAANTHLGAR [RPS0A]")
1.9
>>> reported_result("VLESIVARTFWASKYGQ [BRR2]")
2.61
>>> reported_result("QHQRIVAFVCSPISDSR [RPN10]")
2.3
>>> reported_result("NKENDNVPSTKFNAAPE [SNF12]")
3.14
>>> reported_result("KINSWDQVLVKGGEQIS [YJL041W/NSP1]")
2.21
>>> reported_result("KVISSDARGVIGVIAGG [RPL2A]")
2.84
>>> reported_result("QRVCLRSDSYMLHKVLE [RPT6]")
2.84

----------
experiment: protein stability index of a GFP-peptide fusion (yeast GPS) (PSI 1-4); higher = more stable; sorted into four equal gates, so the index is relative within each strain; settings: doa10∆
Listing of recorded protein stability index by entry.
MEASURED QUANTITY: protein stability index

>>> reported_result("ANFGEILEDFRVIKDFK [YMR153W/NUP53]")
3.07
>>> reported_result("AKPFQVTKEYFQDVYDL [FAS1]")
2.96
>>> reported_result("ERTKQRTAKAYLKVSEE [PRP8]")
3.08
>>> reported_result("IPGGPKFEPLYPREEEE [PRP8]")
3.01
>>> reported_result("LSKINAIQLDYSTANEY [RPN3]")
3.13
>>> reported_result("TSLKCLVNRKPIPFEFQ [SNF2]")
2.56
>>> reported_result("IENMTKEKVSNGGVGVD [FAS2]")
3.23
>>> reported_result("GLIYSFNEENGEDSTKP [POP1]")
3.25
>>> reported_result("GVRSNHLRSNILKDLIY [SMC1]")
2.47
>>> reported_result("DIGKGAETTFLQDVIAL [RPC53]")
2.52
>>> reported_result("SQQAGLDPYERAIYSYL [YDL116W/NUP84]")
2.81
>>> reported_result("KIRRAARDLLTRDEKDP [RPS9A]")
2.33
>>> reported_result("KVWLDPNETSEIAQANS [RPL19A]")
3.16
>>> reported_result("YYLWTGKQVFSLLIKPN [RPO31]")
1.53
>>> reported_result("AIKKKEKLLRHVDSLIE [SRB7]")
3.15

----------
assay: protein stability index of a GFP-peptide fusion (yeast GPS) (PSI 1-4); higher = more stable; sorted into four equal gates, so the index is relative within each strain; settings: ubr1∆
MEASURED QUANTITY: protein stability index

>>> reported_result("GSAATSGFEFSKEDTLR [RPN1]")
3.08
>>> reported_result("YTKKHLSSHSSTNSNSK [RPN4]")
2.95
>>> reported_result("DSVILASSKAVTRGISV [PRE1]")
2.34
>>> reported_result("VTLASILTTAVGLVSPS [RPN1]")
2.85
>>> reported_result("DRFKPNLDIAKDLIRTD [MED4]")
2.96
>>> reported_result("VLIANDVDPIELVVFLP [RPL8A]")
3
>>> reported_result("HFRAPSRILYKAIRGMV [RPL16B]")
2.21
>>> reported_result("RPTEKPVGRELDPISLI [RPN13]")
3.19
>>> reported_result("GKRQVLLRPSSKVIIKF [RPS22B]")
2.15
>>> reported_result("IYEEVRAVLKSFLESVI [HHF1]")
2.66
>>> reported_result("LFGAKPQNTTATTGGLF [YGR119C/NUP57]")
2.59
>>> reported_result("AKPDEKKNDEVSKPAFS [YJL041W/NSP1]")
3.2
>>> reported_result("EEYRKQLDKKNELQKFQ [SMC1]")
3.45
>>> reported_result("GTPPMLHQRTHKQVYPL [DSN1]")
2.93
>>> reported_result("SQQAGLDPYERAIYSYL [YDL116W/NUP84]")
2.83
>>> reported_result("IADKTTYDKETITDLIE [SIR4]")
3.27
>>> reported_result("FVHYGEIKNDFIMVKGC [RPL3]")
2.38

----------
experiment: protein stability index of a GFP-peptide fusion (yeast GPS) (PSI 1-4); higher = more stable; sorted into four equal gates, so the index is relative within each strain; conditions: doa10∆
Listing of recorded protein stability index by entry.
MEASURED QUANTITY: protein stability index

>>> reported_result("SVLHSWVQLVQIIVTDG [YJL039C/NUP192]")
1.58
>>> reported_result("FDEGTTLLSPKDNGMLI [RPO21]")
2.7
>>> reported_result("TLKIHLKKFLQEKMDPN [IRR1]")
2.86
>>> reported_result("ARLAILKERAKNISSQL [YGR119C/NUP57]")
2.24
>>> reported_result("EYYAKKRAFTKKVASAN [RPL16A]")
2.06
>>> reported_result("DIWQSRDQGNDSLNDDL [YIL149C/MLP2]")
3.53
>>> reported_result("NGNWEVGVHIADVTHFV [DIS3]")
2.55
>>> reported_result("KTSLMDLLVIDSHKRIP [SNU114]")
2.43
